# System: Staphylococcus aureus
# test-protocol: Antibacterial activity against vancomycin-susceptible Staphylococcus aureus Mu50omega after 24 hrs by Etest
# Type: functional
readout-label: log10 MIC (log10 of the value in µg/mL)

molecule: CC1(C)S[C@@H]2[C@H](NC(=O)[C@H](N)c3ccccc3)C(=O)N2[C@H]1C(=O)O
log10 MIC: 0.00
//
molecule: C[C@@H](O)[C@H]1C(=O)N2C(C(=O)O)=C(SCCNC=N)C[C@H]12 [IMIPENEM ANHYDROUS]
log10 MIC: -0.42
//
molecule: CN[C@H](CC(C)C)C(=O)N[C@H]1C(=O)N[C@@H](CC(N)=O)C(=O)N[C@H]2C(=O)N[C@H]3C(=O)N[C@H](C(=O)N[C@H](C(=O)O)c4cc(O)cc(O)c4-c4cc3ccc4O)[C@H](O)c3ccc(c(Cl)c3)Oc3cc2cc(c3O[C@@H]2O[C@H](CO)[C@@H](O)[C@H](O)[C@H]2O[C@H]2C[C@](C)(N)[C@H](O)[C@H](C)O2)Oc2ccc(cc2Cl)[C@H]1O
log10 MIC: -0.30
//
molecule: CN(C)[C@@H]1C(O)=C(C(N)=O)C(=O)[C@@]2(O)C(O)=C3C(=O)c4c(O)cccc4[C@@](C)(O)[C@H]3C[C@@H]12
log10 MIC: 1.51
//
molecule: CO[C@@]1(NC(=O)Cc2cccs2)C(=O)N2C(C(=O)O)=C(COC(N)=O)CS[C@@H]21
log10 MIC: 1.51
//
molecule: Cc1onc(-c2ccccc2)c1C(=O)N[C@@H]1C(=O)N2[C@@H]1SC(C)(C)[C@@H]2C(=O)O
log10 MIC: 0.90
//
molecule: CC(=O)NC[C@H]1CN(c2ccc(N3CCOCC3)c(F)c2)C(=O)O1
log10 MIC: -0.30
//
molecule: C[C@H]1c2cccc(O)c2C(=O)C2=C(O)[C@]3(O)C(=O)C(C(N)=O)=C(O)[C@@H](N(C)C)[C@@H]3[C@@H](O)[C@@H]21.O
log10 MIC: 0.90
//
molecule: CO/N=C(\C(=O)N[C@@H]1C(=O)N2C(C(=O)O)=C(CSc3nc(=O)c(O)nn3C)CS[C@H]12)c1csc(N)n1
log10 MIC: 0.48
//
molecule: CC(=O)OCC1=C(C(=O)O)N2C(=O)[C@@H](NC(=O)Cc3cccs3)[C@H]2SC1
log10 MIC: -0.60
//
molecule: CCCCCCCCCC(=O)N[C@@H](Cc1c[nH]c2ccccc12)C(=O)N[C@H](CC(N)=O)C(=O)N[C@@H](CC(=O)O)C(=O)N[C@@H]1C(=O)NCC(=O)N[C@@H](CCCN)C(=O)N[C@@H](CC(=O)O)C(=O)N[C@H](C)C(=O)N[C@@H](CC(=O)O)C(=O)NCC(=O)N[C@H](CO)C(=O)N[C@@H]([C@H](C)CC(=O)O)C(=O)N[C@@H](CC(=O)c2ccccc2N)C(=O)O[C@@H]1C
log10 MIC: 0.00

====

# Test system: Staphylococcus aureus
# test-protocol: Antibacterial activity against vancomycin-susceptible Staphylococcus aureus Mu50omega expressing vraSm mutant gene after 24 hrs by Etest
# Type: functional
Where a SMILES comes first, the peptide text is derived from it. Bridges are numbered along the chain shown (N, C = ends). [ ]: non-standard residue; d: D form. The star is where a group is joined. Ileψ(thiazoline)Cys = CC[C@H](C)[C@H](N)C1=N[C@H](C(=O)*)CS1; dOrn = NCCC[C@@H](N)C(=O)O
MIC strictly under 8 µg/mL means condition met; at 8 µg/mL or over means condition not met.

compound: CCCCCCCCCC(=O)N[C@@H](Cc1c[nH]c2ccccc12)C(=O)N[C@H](CC(N)=O)C(=O)N[C@@H](CC(=O)O)C(=O)N[C@@H]1C(=O)NCC(=O)N[C@@H](CCCN)C(=O)N[C@@H](CC(=O)O)C(=O)N[C@H](C)C(=O)N[C@@H](CC(=O)O)C(=O)NCC(=O)N[C@H](CO)C(=O)N[C@@H]([C@H](C)CC(=O)O)C(=O)N[C@@H](CC(=O)c2ccccc2N)C(=O)O[C@@H]1C
label-class: condition met
--
compound: CO/N=C(\C(=O)N[C@@H]1C(=O)N2C(C(=O)O)=CCS[C@H]12)c1csc(N)n1
label-class: condition not met
--
compound: C[C@@H](O)[C@H]1C(=O)N2C(C(=O)O)=C(SCCNC=N)C[C@H]12 [IMIPENEM ANHYDROUS]
label-class: condition not met
--
compound: CO/N=C(\C(=O)N[C@@H]1C(=O)N2C(C(=O)O)=C(CSc3nc(=O)c(O)nn3C)CS[C@H]12)c1csc(N)n1
label-class: condition not met
--
compound: CN(C)[C@@H]1C(O)=C(C(N)=O)C(=O)[C@@]2(O)C(O)=C3C(=O)c4c(O)cccc4[C@@](C)(O)[C@H]3C[C@@H]12
label-class: condition not met
--
compound: CC1(C)S[C@@H]2[C@H](NC(=O)[C@H](N)c3ccccc3)C(=O)N2[C@H]1C(=O)O
label-class: condition not met
--
compound: Cc1onc(-c2ccccc2)c1C(=O)N[C@@H]1C(=O)N2[C@@H]1SC(C)(C)[C@@H]2C(=O)O
label-class: condition not met
--
compound: CC[C@H](C)[C@H](N)C1=N[C@H](C(=O)N[C@@H](CC(C)C)C(=O)N[C@H](CCC(=O)O)C(=O)N[C@H](C(=O)N[C@H]2CCCCNC(=O)[C@H](CC(N)=O)NC(=O)[C@@H](CC(=O)O)NC(=O)[C@H](Cc3cnc[nH]3)NC(=O)[C@@H](Cc3ccccc3)NC(=O)[C@H]([C@@H](C)CC)NC(=O)[C@@H](CCCN)NC2=O)[C@@H](C)CC)CS1 [BACITRACIN] ({Ileψ(thiazoline)Cys}-L[dE]IK[dOrn]I[dF]H[dD]N; lactam 4-C)
label-class: condition not met
--
compound: CO[C@@]1(NC(=O)Cc2cccs2)C(=O)N2C(C(=O)O)=C(COC(N)=O)CS[C@@H]21
label-class: condition not met
--
compound: CC(=O)OCC1=C(C(=O)O)N2C(=O)[C@@H](NC(=O)Cc3cccs3)[C@H]2SC1
label-class: condition not met
--
compound: CC(=O)NC[C@H]1CN(c2ccc(N3CCOCC3)c(F)c2)C(=O)O1
label-class: condition met
--
compound: CN[C@H](CC(C)C)C(=O)N[C@H]1C(=O)N[C@@H](CC(N)=O)C(=O)N[C@H]2C(=O)N[C@H]3C(=O)N[C@H](C(=O)N[C@H](C(=O)O)c4cc(O)cc(O)c4-c4cc3ccc4O)[C@H](O)c3ccc(c(Cl)c3)Oc3cc2cc(c3O[C@@H]2O[C@H](CO)[C@@H](O)[C@H](O)[C@H]2O[C@H]2C[C@](C)(N)[C@H](O)[C@H](C)O2)Oc2ccc(cc2Cl)[C@H]1O
label-class: condition met

====

# Tested on: Staphylococcus aureus
# test-protocol: Antibacterial activity against vancomycin-susceptible Staphylococcus aureus Mu50omega expressing vraSn mutant gene after 48 hrs by Etest
# Assay type: functional

molecule: CC(=O)OCC1=C(C(=O)O)N2C(=O)[C@@H](NC(=O)Cc3cccs3)[C@H]2SC1 [CEPHALOTHIN]
system: Staphylococcus aureus
MIC: > 256 µg/mL
--
molecule: C[C@@H](O)[C@H]1C(=O)N2C(C(=O)O)=C(SCCNC=N)C[C@H]12 [IMIPENEM ANHYDROUS]
system: Staphylococcus aureus
MIC: > 32 µg/mL
--
molecule: CO/N=C(\C(=O)N[C@@H]1C(=O)N2C(C(=O)O)=CCS[C@H]12)c1csc(N)n1 [CEFTIZOXIME]
system: Staphylococcus aureus
MIC: > 256 µg/mL
--
molecule: CO[C@@]1(NC(=O)Cc2cccs2)C(=O)N2C(C(=O)O)=C(COC(N)=O)CS[C@@H]21 [CEFOXITIN]
system: Staphylococcus aureus
MIC: > 256 µg/mL

====

# Test system: Staphylococcus aureus
# test-protocol: Antibacterial activity against vancomycin-susceptible Staphylococcus aureus Mu50omega after 48 hrs by Etest
# Type: functional
readout-label: MIC

line-notation: CC(=O)NC[C@H]1CN(c2ccc(N3CCOCC3)c(F)c2)C(=O)O1
readout-label: MIC
result: 0.5 µg/mL
--
line-notation: CC[C@H]1OC(=O)[C@H](C)[C@@H](O[C@H]2C[C@@](C)(OC)[C@@H](O)[C@H](C)O2)[C@H](C)[C@@H](O[C@@H]2O[C@H](C)C[C@H](N(C)C)[C@H]2O)[C@](C)(O)C[C@@H](C)C(=O)[C@H](C)[C@@H](O)[C@]1(C)O
readout-label: MIC
result: > 256 µg/mL
--
line-notation: O=C(O)c1cn(C2CC2)c2cc(N3CCNCC3)c(F)cc2c1=O
readout-label: MIC
result: > 32 µg/mL
--
line-notation: CC[C@H]1OC(=O)[C@H](C)[C@@H](O[C@H]2C[C@@](C)(OC)[C@@H](O)[C@H](C)O2)[C@H](C)[C@@H](O[C@@H]2O[C@H](C)C[C@H](N(C)C)[C@H]2O)[C@](C)(OC)C[C@@H](C)C(=O)[C@H](C)[C@@H](O)[C@]1(C)O
readout-label: MIC
result: > 256 µg/mL
--
line-notation: C[C@H]1c2cccc(O)c2C(=O)C2=C(O)[C@]3(O)C(=O)C(C(N)=O)=C(O)[C@@H](N(C)C)[C@@H]3[C@@H](O)[C@@H]21.O
readout-label: MIC
result: > 256 µg/mL
